We begin with a simple list: items and their reported TGI.
tested on: IGROV1 ovarian; assay: NCI tumour cell line growth inhibition, 48 h

In the examples that follow, each entry is paired with its recorded TGI.
Cc1nnc(N=Nc2c(O)[nH]c3ccccc23)[nH]c1=O ... > 100 µM
C[C@@](Br)(C(=O)O)[C@H](Br)C(=O)O ... > 100 µM
CCCCCCCCCCCCNC(=O)[C@H]1CSC(c2ccsc2)N1 (stereo partly specified) ... 1.92 µM
COC(=O)Cc1cc(=O)oc2c1C(=O)CCC2 ... > 100 µM
COc1ccc2c(c1)-c1nc(=S)n(CCN(C)C)c3ccc([N+](=O)[O-])c(c13)N2 ... 2.55 µM
CC[C@H](C)[C@H](NC(=O)N[C@@H](C)c1ccccc1)C(=O)N(C)[C@H](C[C@@H](OC(C)=O)c1nc(C(=O)N[C@@H](Cc2ccccc2)C[C@H](C)C(=O)OC)cs1)C(C)C ... > 100 µM
N#CC1=C(N)NC(=S)C(C#N)C12Nc1ccccc1S2 (stereo unspecified) ... 72.5 µM
COC(=O)C1=C(C(=O)OC)C(C(=O)OC)C(C(=O)OC)C(C(=O)OC)(C(=O)OC)C(C(=O)OC)=C1C(=O)OC (stereo unspecified) ... 36.8 µM

INPUT: Report TGI, nothing else, for this compound: "COc1cc(/C=C2\C(=O)Nc3ccc(Br)cc32)cc(OC)c1OC"
OUTPUT: 17 µM

INPUT: Report TGI, nothing else, for this compound: "O=c1n(CCCN2CCOCC2)nc2n1-c1ccc3ccccc3c1SC2"
OUTPUT: > 100 µM

INPUT: Report TGI, nothing else, for this compound: "C=C(C[N+](C)(C)C)N/N=C/c1oc(-c2ccc(OC)c(OC)c2)c(-c2ccc(OC)c(OC)c2)c1[N+](=O)[O-]"
OUTPUT: 34.3 µM

INPUT: Report TGI, nothing else, for this compound: CSc1ncnc2c1cnn2Cc1cn(COCC(O)CO)nn1 (stereo unspecified)
OUTPUT: > 100 µM

INPUT: Report TGI, nothing else, for this compound: Fc1cccc(F)c1C1SCc2nc3cc(Cl)ccc3n21 (stereo unspecified)
OUTPUT: > 72.4 µM

INPUT: Report TGI, nothing else, for this compound: CC(=O)OC1Oc2cc(C)c(C)cc2-c2oc(=O)c(-c3ccccc3)cc21 (stereo unspecified)
OUTPUT: 0.432 µM

INPUT: Report TGI, nothing else, for this compound: CCC1(Cl)C(=O)NC(=O)N(C2CC(O)C(CO)O2)C1N=[N+]=[N-] (stereo unspecified)
OUTPUT: > 100 µM

INPUT: Report TGI, nothing else, for this compound: "CCCCCc1cc(CCCC)sc1-c1ccco1"
OUTPUT: > 100 µM
